So I've got a bunch of compounds here, and I need their hERG current change (%, negative = inhibition) at 10uM values.
target: human ether-à-go-go-related gene (hERG) potassium channel (human, UniProt Q12809); assay: primary screen, population patch clamp on CHO cells stably expressing hERG; higher = less effect of the substance;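 note: peak tail current of the secondary pulse compared with the same well before compound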
Sequence (Q12809 whole entry, looked up): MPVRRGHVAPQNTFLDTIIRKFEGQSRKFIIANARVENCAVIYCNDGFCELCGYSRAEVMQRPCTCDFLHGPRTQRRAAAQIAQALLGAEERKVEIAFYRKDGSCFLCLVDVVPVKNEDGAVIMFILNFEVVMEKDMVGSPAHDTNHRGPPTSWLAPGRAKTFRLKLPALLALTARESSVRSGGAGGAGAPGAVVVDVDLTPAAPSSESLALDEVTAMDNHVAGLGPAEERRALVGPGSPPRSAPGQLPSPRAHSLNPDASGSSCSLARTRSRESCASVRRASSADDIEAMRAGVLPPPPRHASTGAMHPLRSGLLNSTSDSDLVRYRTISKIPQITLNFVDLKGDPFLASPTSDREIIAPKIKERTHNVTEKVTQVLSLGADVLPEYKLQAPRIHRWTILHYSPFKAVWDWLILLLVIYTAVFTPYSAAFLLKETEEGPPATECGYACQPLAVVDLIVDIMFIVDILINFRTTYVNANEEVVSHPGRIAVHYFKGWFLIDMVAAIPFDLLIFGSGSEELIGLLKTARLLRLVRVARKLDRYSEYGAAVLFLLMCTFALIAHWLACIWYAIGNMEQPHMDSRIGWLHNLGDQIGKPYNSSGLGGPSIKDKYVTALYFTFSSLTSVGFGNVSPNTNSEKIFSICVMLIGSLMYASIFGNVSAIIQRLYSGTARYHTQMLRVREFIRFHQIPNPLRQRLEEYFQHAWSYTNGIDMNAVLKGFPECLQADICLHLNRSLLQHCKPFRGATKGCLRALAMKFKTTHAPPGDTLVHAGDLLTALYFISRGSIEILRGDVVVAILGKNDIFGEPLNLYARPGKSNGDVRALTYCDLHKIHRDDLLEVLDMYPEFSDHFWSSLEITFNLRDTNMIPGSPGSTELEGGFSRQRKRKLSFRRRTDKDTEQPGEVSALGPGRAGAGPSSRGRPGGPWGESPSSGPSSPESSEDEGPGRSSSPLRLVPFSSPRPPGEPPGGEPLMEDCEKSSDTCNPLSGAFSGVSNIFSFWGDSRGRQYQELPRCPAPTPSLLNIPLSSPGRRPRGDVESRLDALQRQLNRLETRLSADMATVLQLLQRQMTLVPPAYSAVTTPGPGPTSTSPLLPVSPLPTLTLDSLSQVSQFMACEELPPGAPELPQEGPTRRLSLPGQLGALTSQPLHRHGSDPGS
The whole screen tested about 310,000 compounds, of which about 14,000 (4.5%) showed an effect of 50% or more. Effects have a minus sign here. The full list was thinned out, with strong results kept by preference.
Kindly answer with a numeric value in %, unit omitted.

INPUT: Would you kindly share the measured hERG current change (%, negative = inhibition) at 10uM for CC(NC1CCCCC1)C(=O)NN=C(c1ccccc1)c1ccccc1 (stereo not shown) ?
OUTPUT: -32.1

INPUT: Which hERG current change (%, negative = inhibition) at 10uM value belongs to Cc1nn(Cc2ccccc2)c(C)c1NC(=O)Cn1nc([N+](=O)[O-])c(Cl)c1C ?
OUTPUT: -10.4

INPUT: Dear colleague, I am looking for the recorded hERG current change (%, negative = inhibition) at 10uM of the following compound: O=C(Nc1cnn(Cc2ccc(Cl)cc2)c1)c1ccc([N+](=O)[O-])cc1
OUTPUT: -31.4

INPUT: What does the record list as hERG current change (%, negative = inhibition) at 10uM for CCN(CC)P(=O)(Nc1ccc([N+](=O)[O-])cc1)c1c(C)nn(CCC#N)c1NC(=O)c1ccc(Cl)cc1Cl (stereo not shown) ?
OUTPUT: 3.17

INPUT: hERG current change (%, negative = inhibition) at 10uM lookup needed for COc1ccc(NC(=O)CN(C)C(=O)c2ccc3[nH]c4c(c3c2)CC(C)CC4)cc1 (stereo not shown) , thanks.
OUTPUT: 7.28

INPUT: What measured hERG current change (%, negative = inhibition) at 10uM goes with Cc1onc(-c2ccccc2)c1C(=O)NCc1ccc(Cl)cc1 ?
OUTPUT: 13.8

INPUT: hERG current change (%, negative = inhibition) at 10uM lookup needed for CCN(CC)P(=O)(Nc1ccc([N+](=O)[O-])cc1)c1c(C)nn(CCC#N)c1NC(=O)c1ccc(Cl)cc1 (stereo not shown) , thanks.
OUTPUT: -56.9

INPUT: So what's the measured hERG current change (%, negative = inhibition) at 10uM for this one? O=C(CN1CCOCC1)NN=C(c1ccccc1)c1ccccc1
OUTPUT: 20.8

INPUT: Reported hERG current change (%, negative = inhibition) at 10uM for Cc1cccc(Cn2nc(C(C)(C)C)cc2C(=O)Nc2ccc(F)cc2)c1 : what is it?
OUTPUT: 14.8

INPUT: Please report the recorded hERG current change (%, negative = inhibition) at 10uM for CCSCCOC(=O)C1=C(C)NC(=O)NC1c1ccc2c(c1)OCO2 (stereo not shown) .
OUTPUT: -13.4

INPUT: Entry CSCCC(NC(=O)c1ccc(Cl)cc1)C(=O)OCC(=O)N1CCCC1=O (stereo not shown) has what hERG current change (%, negative = inhibition) at 10uM?
OUTPUT: -2.69

INPUT: Which measured hERG current change (%, negative = inhibition) at 10uM value corresponds to CCN(CC)P(=O)(Nc1ccc(Br)cc1)c1c(C)nn(CCC#N)c1NC(=O)c1ccc(Cl)cc1 (stereo not shown) ?
OUTPUT: 7.19

INPUT: Requested read-out: hERG current change (%, negative = inhibition) at 10uM. Entry: Cc1nn(Cc2ccccc2)c(C)c1NC(=O)c1ccc([N+](=O)[O-])cc1[N+](=O)[O-]
OUTPUT: -57

INPUT: Requested read-out: hERG current change (%, negative = inhibition) at 10uM. Entry: CCOC(=O)C(=O)NN=C(c1ccccc1)c1ccccc1
OUTPUT: 9.79

INPUT: Item C=CCNC(=O)NC(=S)c1ccccc1 has what recorded hERG current change (%, negative = inhibition) at 10uM?
OUTPUT: -4.57

INPUT: Can you share its hERG current change (%, negative = inhibition) at 10uM? I mean this compound: COc1ccc(C(=O)Nc2ccc(N3CCOCC3)cc2)cc1OC
OUTPUT: 1.36

INPUT: Given the compound Cc1ccc[n+](C2C(c3ccc([N+](=O)[O-])cc3)C(C#N)=C([S-])NC2(O)C2CC2)c1 (stereo not shown) , what is its reported hERG current change (%, negative = inhibition) at 10uM?
OUTPUT: 0.00258

INPUT: Can you share its hERG current change (%, negative = inhibition) at 10uM? I mean this compound: CCN(CC(=O)Nc1c(F)cccc1F)C(=O)CN1C(=O)NC2(CCCC2)C1=O
OUTPUT: 22.5

INPUT: Please report the recorded hERG current change (%, negative = inhibition) at 10uM for O=C(CNC1CCCCC1)NN=C(c1ccccc1)c1ccccc1 .
OUTPUT: -59.8
